system-tested: human TLR8 (Homo sapiens (Human))
Sequence (Q9NR97 27-1041): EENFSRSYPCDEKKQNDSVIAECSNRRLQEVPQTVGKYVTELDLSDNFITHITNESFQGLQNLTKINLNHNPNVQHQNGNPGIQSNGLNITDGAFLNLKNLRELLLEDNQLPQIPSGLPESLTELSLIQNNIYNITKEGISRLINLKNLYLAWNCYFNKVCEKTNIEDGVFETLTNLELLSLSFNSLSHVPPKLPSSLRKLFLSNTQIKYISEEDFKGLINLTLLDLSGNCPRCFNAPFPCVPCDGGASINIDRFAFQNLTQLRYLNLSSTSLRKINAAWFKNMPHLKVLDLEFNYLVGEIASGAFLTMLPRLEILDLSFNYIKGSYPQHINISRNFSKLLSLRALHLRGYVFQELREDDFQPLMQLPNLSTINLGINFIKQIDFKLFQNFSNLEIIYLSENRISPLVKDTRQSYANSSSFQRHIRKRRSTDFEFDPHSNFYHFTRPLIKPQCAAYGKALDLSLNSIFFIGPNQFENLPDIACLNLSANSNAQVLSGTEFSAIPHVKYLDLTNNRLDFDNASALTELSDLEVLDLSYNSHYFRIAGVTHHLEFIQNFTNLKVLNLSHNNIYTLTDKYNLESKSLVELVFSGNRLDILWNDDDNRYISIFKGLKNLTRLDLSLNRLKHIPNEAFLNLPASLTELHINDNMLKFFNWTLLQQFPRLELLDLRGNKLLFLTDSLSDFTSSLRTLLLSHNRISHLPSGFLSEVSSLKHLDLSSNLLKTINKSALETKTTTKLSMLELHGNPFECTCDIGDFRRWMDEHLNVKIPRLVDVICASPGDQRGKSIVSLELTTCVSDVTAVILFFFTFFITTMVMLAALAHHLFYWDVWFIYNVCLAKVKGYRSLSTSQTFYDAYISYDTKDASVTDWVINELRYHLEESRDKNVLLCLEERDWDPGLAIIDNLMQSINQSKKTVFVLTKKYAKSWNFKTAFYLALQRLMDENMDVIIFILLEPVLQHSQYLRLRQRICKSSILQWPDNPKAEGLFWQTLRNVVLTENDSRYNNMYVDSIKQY
protocol: TLR8 inhibition reporter assay (HEK-Blue cells, SEAP reporter, R848 stimulation);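 further: compounds tested from 0.05 nM to 50 µM, 22 h at 37 °C, SEAP measured with HEK-Blue Detection, inhibition relative to agonist plus DMSO versus a known inhibitor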
study-conditions: read-out: TLR8 IC50, HEK-Blue cells overexpressing human TLR8, R848 15.9 μM

- molecule: "Cc1cc(-c2[nH]c3ccc(C4CCN(CC(=O)NC5(C)CCOCC5)CC4)cc3c2C(C)C)cc(C)n1"
  IC50 [nM]: 11.1
- molecule: "CCc1c(-c2ccnc(N)c2)[nH]c2ccc([C@@H]3CCNC[C@H]3F)cc12"
  IC50 [nM]: 34.9
- molecule: "Cc1cc(-c2[nH]c3ccc(C4CCN(C(=O)C5(O)CC5)CC4)cc3c2C(C)C)cc(C)n1"
  IC50 [nM]: 28.4
- molecule: "Cc1cc(-c2[nH]c3ccc(C4CCN(C(C)C(=O)N(C)C)CC4)cc3c2CC(F)F)cc(C)n1 (stereo not drawn)"
  IC50 [nM]: 498
- molecule: "Cc1cc(-c2[nH]c3ccc(C4CCN(C(=O)CNCC(C)(C)O)CC4)cc3c2C(C)C)cc(C)n1"
  IC50 [nM]: 80.6
- molecule: "CNC(=O)CN1CCC(c2ccc3[nH]c(-c4cc(C)ncc4C)c(C(C)C)c3c2)CC1"
  IC50 [nM]: 4.4
- molecule: "COc1cc(-c2[nH]c3ccc(C4CCN(C5CCN(CC(C)C)CC5)CC4)cc3c2C)ccn1"
  IC50 [nM]: 316
- molecule: "Cc1cc(-c2[nH]c3ccc(C4CCN(C(=O)CNC56CC7CC(CC(O)(C7)C5)C6)CC4)cc3c2C(C)C)cc(C)n1"
  IC50 [nM]: 20.3
- molecule: "Cc1cc(-c2[nH]c3ccc(C4CCN(CC(=O)N(C)C)CC4)cc3c2C(C)C)cc(F)n1"
  IC50 [nM]: 14.2
- molecule: "Cc1cc(-c2[nH]c3ccc(C4CCN(C(=O)C5CCCO5)CC4)cc3c2C(C)C)cc(C)n1 (stereo not drawn)"
  IC50 [nM]: 80.8
- molecule: "CCN(C)CC(=O)N1CCC(c2ccc3[nH]c(-c4cc(C)nc(C)c4)c(C(C)C)c3c2)CC1"
  IC50 [nM]: 13.9
- molecule: "Cc1cc(-c2[nH]c3ccc(C4CCN(CC(=O)N5C[C@H](C)C[C@@H]5CO)CC4)cc3c2C(C)C)cc(C)n1"
  IC50 [nM]: 66.8
- molecule: "Cc1cc(-c2[nH]c3ccc(C4CCN(C(=O)CN(C)CCO)CC4)cc3c2C(C)C)cc(C)n1"
  IC50 [nM]: 9.9
- molecule: "COc1cc(-c2[nH]c3ccc(C4CCN(C5CCN(C)CC5)CC4)cc3c2C(C)C)ccn1"
  IC50 [nM]: 12.5
- molecule: "CCC(CC)NC(=O)CN1CCC(c2ccc3[nH]c(-c4cc(C)nc(C)c4)c(C(C)C)c3c2)CC1"
  IC50 [nM]: 36

---

system-tested: UniProtKB Q9NR96
Sequence (Q9NR96 26-1032): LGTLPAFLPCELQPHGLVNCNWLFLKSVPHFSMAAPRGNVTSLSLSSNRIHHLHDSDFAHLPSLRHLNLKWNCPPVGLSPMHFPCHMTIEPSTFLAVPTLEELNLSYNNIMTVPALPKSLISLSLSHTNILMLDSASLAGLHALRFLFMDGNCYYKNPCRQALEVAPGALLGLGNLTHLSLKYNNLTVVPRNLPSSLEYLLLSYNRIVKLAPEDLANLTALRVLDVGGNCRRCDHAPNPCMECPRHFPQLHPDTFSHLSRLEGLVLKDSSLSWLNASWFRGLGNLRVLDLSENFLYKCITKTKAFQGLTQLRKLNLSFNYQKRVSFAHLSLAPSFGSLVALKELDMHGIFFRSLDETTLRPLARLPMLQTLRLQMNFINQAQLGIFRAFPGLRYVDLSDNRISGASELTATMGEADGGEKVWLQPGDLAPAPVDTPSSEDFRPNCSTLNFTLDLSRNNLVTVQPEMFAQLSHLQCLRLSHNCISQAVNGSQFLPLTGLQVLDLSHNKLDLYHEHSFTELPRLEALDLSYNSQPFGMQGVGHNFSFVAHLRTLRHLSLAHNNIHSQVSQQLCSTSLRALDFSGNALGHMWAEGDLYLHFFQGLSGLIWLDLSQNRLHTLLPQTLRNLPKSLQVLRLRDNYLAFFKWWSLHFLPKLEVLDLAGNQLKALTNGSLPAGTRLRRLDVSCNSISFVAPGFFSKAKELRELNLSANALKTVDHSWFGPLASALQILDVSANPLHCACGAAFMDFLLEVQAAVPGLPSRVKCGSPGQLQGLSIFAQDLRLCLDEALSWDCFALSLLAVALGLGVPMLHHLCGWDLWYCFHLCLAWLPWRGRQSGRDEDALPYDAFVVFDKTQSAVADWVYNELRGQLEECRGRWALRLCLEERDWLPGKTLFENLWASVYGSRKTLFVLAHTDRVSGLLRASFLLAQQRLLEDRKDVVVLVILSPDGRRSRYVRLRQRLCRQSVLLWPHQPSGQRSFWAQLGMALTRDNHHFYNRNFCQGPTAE
protocol: TLR9 inhibition reporter assay (HEK-Blue cells, SEAP reporter, ODN2006 stimulation);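 further: compounds tested over 0.05 nM to 50 µM, 22 h incubation, inhibition taken as SEAP signal drop from agonist plus DMSO wells toward a known inhibitor control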
study-conditions: read-out: TLR9 IC50, HEK-Blue cells overexpressing human TLR9, ODN2006 5 nM
pIC50: −log10 of the molar value.

- compound: "Cc1cc(-c2[nH]c3ccc(C4CCN(C(=O)CNCCC(C)(C)C)CC4)cc3c2C(C)C)cc(C)n1"
  system-tested: "UniProtKB Q9NR96"
  relation-qualifier: "="
  pIC50: 6.12
- compound: "Cc1cc(-c2[nH]c3ccc(C4CCN(CC(=O)N5C[C@H](C)C[C@@H]5CO)CC4)cc3c2C(C)C)cc(C)n1"
  system-tested: "UniProtKB Q9NR96"
  relation-qualifier: "="
  pIC50: 6.06
- compound: "CNCC(=O)N1CCC(c2ccc3[nH]c(-c4cc(C)ncc4F)c(C(C)C)c3c2)CC1"
  system-tested: "UniProtKB Q9NR96"
  relation-qualifier: "="
  pIC50: 5.80
- compound: "CCc1c(-c2ccnc(C)c2)[nH]c2ccc(C3CCN(C(=O)C4CNC4)CC3)cc12"
  system-tested: "UniProtKB Q9NR96"
  relation-qualifier: "="
  pIC50: 6.48
- compound: "Cc1cc(-c2[nH]c3ccc(C4CCN(C(=O)CN5CCOC5=O)CC4)cc3c2C(C)C)cc(C)n1"
  system-tested: "UniProtKB Q9NR96"
  relation-qualifier: "="
  pIC50: 4.85
- compound: "CNC(=O)CN1CCC(c2ccc3[nH]c(-c4cc(C)nc(C)c4F)c(C(C)C)c3c2)CC1"
  system-tested: "UniProtKB Q9NR96"
  relation-qualifier: "="
  pIC50: 5.76
- compound: "Cc1cc(-c2[nH]c3ccc(C4CCN(C(=O)CN(C)C)CC4)cc3c2C(C)C)ccn1"
  system-tested: "UniProtKB Q9NR96"
  relation-qualifier: "="
  pIC50: 5.43
- compound: "CC(C)c1c(-c2ccnc(C(=O)Nc3nccs3)c2)[nH]c2ccc(C3CCNCC3)cc12"
  system-tested: "UniProtKB Q9NR96"
  relation-qualifier: "="
  pIC50: 5.66
- compound: "Cc1cc(-c2[nH]c3ccc(C4CCN(C(=O)CN(C)C5CCS(=O)(=O)C5)CC4)cc3c2C(C)C)cc(C)n1 (stereo not shown)"
  system-tested: "UniProtKB Q9NR96"
  relation-qualifier: "="
  pIC50: 5.42
- compound: "Cc1cc(-c2[nH]c3ccc(C4CCN(CC(=O)N5CCCCC5)CC4)cc3c2C(C)C)cc(C)n1"
  system-tested: "UniProtKB Q9NR96"
  relation-qualifier: "="
  pIC50: 6.35
- compound: "Cc1cc(-c2[nH]c3ccc(C4CCN(CC(N)=O)CC4)cc3c2C(C)C)c(F)cn1"
  system-tested: "UniProtKB Q9NR96"
  relation-qualifier: "="
  pIC50: 5.89
- compound: "Cc1cc(-c2[nH]c3ccc(C4CCN(CC(=O)NC5(C)COC5)CC4)cc3c2C(C)C)cc(C)n1"
  system-tested: "UniProtKB Q9NR96"
  relation-qualifier: "="
  pIC50: 6.01
- compound: "Cc1cc(-c2[nH]c3ccc(C4CCN(C(=O)CN5CCC(F)(F)CC5)CC4)cc3c2C(C)C)cc(C)n1"
  system-tested: "UniProtKB Q9NR96"
  relation-qualifier: "="
  pIC50: 4.79
- compound: "CCC(C)NCC(=O)N1CCC(c2ccc3[nH]c(-c4cc(C)nc(C)c4)c(C(C)C)c3c2)CC1 (stereo not shown)"
  system-tested: "UniProtKB Q9NR96"
  relation-qualifier: "="
  pIC50: 6.60
- compound: "Cc1cc(-c2[nH]c3ccc(C4CCN(S(=O)(=O)c5ccccc5)CC4)cc3c2C(C)C)ccn1"
  system-tested: "UniProtKB Q9NR96"
  relation-qualifier: "<"
  pIC50: 4.30
- compound: "CC(=O)N1CCC(c2ccc3[nH]c(-c4cc(C)nc(C5CC5)c4)c(C(C)C)c3c2)CC1"
  system-tested: "UniProtKB Q9NR96"
  relation-qualifier: "="
  pIC50: 4.47
- compound: "Cc1cc(-c2[nH]c3ccc(C4CCN(C5CCOCC5)CC4)cc3c2C(C)C)c(F)cn1"
  system-tested: "UniProtKB Q9NR96"
  relation-qualifier: "="
  pIC50: 5.52
- compound: "Cc1cc(-c2[nH]c3ccc(C4CCN(C(=O)C5CCOC5)CC4)cc3c2C(C)C)ccn1 (stereo not shown)"
  system-tested: "UniProtKB Q9NR96"
  relation-qualifier: "="
  pIC50: 4.36
- compound: "Cc1cc(-c2[nH]c3ccc(C4CCN(C(=O)c5cscn5)CC4)cc3c2C(C)C)cc(C)n1"
  system-tested: "UniProtKB Q9NR96"
  relation-qualifier: "="
  pIC50: 5.26
- compound: "CCc1c(-c2ccnc(N)c2)[nH]c2ccc([C@@H]3CCNC[C@@H]3F)cc12"
  system-tested: "UniProtKB Q9NR96"
  relation-qualifier: "="
  pIC50: 6.45
- compound: "Cc1cc(-c2[nH]c3cc(F)c(C4CCNCC4)cc3c2C(C)C)c(C)cn1"
  system-tested: "UniProtKB Q9NR96"
  relation-qualifier: "="
  pIC50: 6.23
- compound: "Cc1cnc(N)cc1-c1[nH]c2ccc(C3CCNCC3)cc2c1C(C)C"
  system-tested: "UniProtKB Q9NR96"
  relation-qualifier: "="
  pIC50: 6.25
- compound: "CCc1c(-c2cc(Cl)ncc2OC)[nH]c2ccc(C3CCN(C4CCN(CC(C)C)CC4)CC3)cc12"
  system-tested: "UniProtKB Q9NR96"
  relation-qualifier: "="
  pIC50: 5.72
- compound: "Cc1cc(-c2[nH]c3ccc(C4CCN(Cc5ncccn5)CC4)cc3c2C(C)C)cc(C)n1"
  system-tested: "UniProtKB Q9NR96"
  relation-qualifier: "="
  pIC50: 6.40
- compound: "Cc1cc(-c2[nH]c3ccc(C4CCN(C(=O)CN(C)C5CC5)CC4)cc3c2C(C)C)cc(C)n1"
  system-tested: "UniProtKB Q9NR96"
  relation-qualifier: "="
  pIC50: 5.63
- compound: "Cc1cc(-c2[nH]c3ccc(C4CCN(CC(=O)N(C)C)CC4)cc3c2C(C)C)cc(C2CC2)n1"
  system-tested: "UniProtKB Q9NR96"
  relation-qualifier: "="
  pIC50: 6.15
- compound: "Cc1cc(-c2[nH]c3ccc(C4CCN(CC(=O)N5CCC6(CC5)COC6)CC4)cc3c2C(C)C)cc(C)n1"
  system-tested: "UniProtKB Q9NR96"
  relation-qualifier: "="
  pIC50: 6.58
- compound: "Cc1cc(-c2[nH]c3ccc(C4CCN(C(=O)C5CCN(C(C)C)CC5)CC4)cc3c2C(C)C)cc(C)n1"
  system-tested: "UniProtKB Q9NR96"
  relation-qualifier: "="
  pIC50: 6.58
- compound: "CCc1c(-c2ccncc2)[nH]c2ccc(C3CCN(Cc4cccn4C)CC3)cc12"
  system-tested: "UniProtKB Q9NR96"
  relation-qualifier: "="
  pIC50: 5.92
- compound: "CCc1c(-c2cc(F)nc(F)c2)[nH]c2ccc(C3CCN(C4CCN(CC(C)C)CC4)CC3)cc12"
  system-tested: "UniProtKB Q9NR96"
  relation-qualifier: "="
  pIC50: 6.10
- compound: "Cc1cc(-c2[nH]c3ccc(C4CCN(CC(C)O)CC4)cc3c2C(C)C)cc(C)n1 (stereo not shown)"
  system-tested: "UniProtKB Q9NR96"
  relation-qualifier: "="
  pIC50: 6.25

Origin of the recorded values: patent US10660877B2
